# STUDY TARGET: T1, human TSH receptor (full length), coated on tubes (human, UniProt P16473 22-764)
# T1 construct: TSHR coated tubes as described in WO2004/050708A2; Exact preparation on the tubes is not detailed here; also called thyroid stimulating hormone receptor
# ASSAY INFO: competition with 125I-K1-18 IgG on TSHR coated tubes; 100 µg/mL, diluted in HBD serum pool
# Procedure: Binding inhibition assays were carried out using TSHR coated tubes as described in WO2004/050708A2. […] After aspiration, the tubes were washed and 100 μL of ¹²⁵I-labelled protein (5×10⁴ cpm) added and incubated for 1 hour at room temperature with shaking. The tubes were then aspirated, washed and counted in a gamma counter. Inhibition of labelled protein binding was calculated as 100×[1−(cpm bound in the presence of test material/cpm bound in the presence of control material)].
Entries and their measured Inhibition of binding (%) follow.
// return numeric value only (unit: %, not printed)

Solved cases (2 shown):
1) K1-70 Fab (Fab, V domains shown) VH: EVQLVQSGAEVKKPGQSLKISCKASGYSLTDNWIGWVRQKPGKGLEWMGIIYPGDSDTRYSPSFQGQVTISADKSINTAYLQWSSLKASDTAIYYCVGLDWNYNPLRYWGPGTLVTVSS VL: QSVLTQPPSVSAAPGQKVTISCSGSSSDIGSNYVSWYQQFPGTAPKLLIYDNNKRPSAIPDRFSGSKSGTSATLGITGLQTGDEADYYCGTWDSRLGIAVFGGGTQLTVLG ... 92.5
2) K1-18 Fab (Fab, V domains shown) VH: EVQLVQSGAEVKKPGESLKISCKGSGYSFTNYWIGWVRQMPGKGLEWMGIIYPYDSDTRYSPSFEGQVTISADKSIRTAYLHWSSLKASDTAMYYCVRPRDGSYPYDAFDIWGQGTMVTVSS VL: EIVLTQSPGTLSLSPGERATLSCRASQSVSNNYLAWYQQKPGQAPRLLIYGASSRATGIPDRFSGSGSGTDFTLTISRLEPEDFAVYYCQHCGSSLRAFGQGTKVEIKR ... 84.8

// moving on: another record for Inhibition of binding (%)
# binder K1-18 IgG (antibody, V domains shown) VH: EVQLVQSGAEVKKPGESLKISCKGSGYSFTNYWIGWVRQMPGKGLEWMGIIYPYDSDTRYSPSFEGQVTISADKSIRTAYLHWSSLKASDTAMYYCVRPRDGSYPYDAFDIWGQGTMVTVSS VL: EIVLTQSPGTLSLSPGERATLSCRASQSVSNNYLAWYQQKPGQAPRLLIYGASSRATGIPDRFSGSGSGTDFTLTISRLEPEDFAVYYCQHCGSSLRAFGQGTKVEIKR ; its Inhibition of binding (%) = 96.1

The origin of these recorded values is patent US20110300138A1.
